The entries below come with measured H3.3: K36ME3, % of peptide pool values attached.
- Test system: histone modifications in 2102EP cells
- method: Mass spectrometry analysis of histone modifications (Mod Spec)
- Format: cell-based, Human
- conditions: 2102EP cells; Mod Spec raw data
Write down the numeric answer in % and omit the unit.

Record excerpt, results attached:
compound: Cn1cc(CNCC2CCN(c3ncc(C(=O)NO)cn3)CC2)c2ccccc21 [Quisinostat]
recorded-number: 21.2958
//
compound: O=C1C(=Cc2cccnc2)C(=O)c2ccccc21 [PRT4165]
recorded-number: 23.7392

Inquiry: Answer with the recorded H3.3: K36ME3, % of peptide pool of CCCc1cc(C)[nH]c(=O)c1CNC(=O)c1cc(-c2ccnc(N3CCN(C)CC3)c2)cc2c1cnn2C(C)C [GSK343] only.
Reply text: 19.9849

Inquiry: Answer with the recorded H3.3: K36ME3, % of peptide pool of Cc1ncsc1-c1ccc(CNC(=O)[C@@H]2C[C@@H](O)CN2C(=O)[C@@H](NC(=O)COCCOCCOCCNC(=O)C[C@@H]2N=C(c3ccc(Cl)cc3)c3c(sc(C)c3C)-n3c(C)nnc32)C(C)(C)C)cc1 [MZ-1] only.
Reply text: 19.9611
